// data source = ChEMBL document CHEMBL1134039

# systemName: Somatostatin receptor type 5 (Homo sapiens)
# Sequence (P35346 whole entry): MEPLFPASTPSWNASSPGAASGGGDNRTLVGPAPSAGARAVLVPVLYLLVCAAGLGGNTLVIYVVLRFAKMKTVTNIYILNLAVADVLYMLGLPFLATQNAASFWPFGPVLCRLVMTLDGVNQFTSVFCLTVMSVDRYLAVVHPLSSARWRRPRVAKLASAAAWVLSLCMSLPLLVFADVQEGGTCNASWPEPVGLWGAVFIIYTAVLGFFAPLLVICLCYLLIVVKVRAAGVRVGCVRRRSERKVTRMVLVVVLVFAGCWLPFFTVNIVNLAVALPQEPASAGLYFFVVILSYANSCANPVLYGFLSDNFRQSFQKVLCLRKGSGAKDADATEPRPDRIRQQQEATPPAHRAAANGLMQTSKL
valueKind: pKi
Please treat pKi as minus the base-10 logarithm of the molar concentration.

Use these answered entries as a reference point.
recordSmiles: NC(=N[C@H](Cc1c[nH]c2ccccc12)c1nc(-c2ccccc2)c[nH]1)c1ccc(F)cc1F
systemName: Somatostatin receptor type 5 (Homo sapiens)
pKi: 5.65

recordSmiles: NC(=N[C@H](Cc1c[nH]c2ccccc12)c1nc(-c2ccccc2)c[nH]1)c1ccc(C(F)(F)F)cc1
systemName: Somatostatin receptor type 5 (Homo sapiens)
pKi: 5.67

Next compound, pKi to be filled in.
Form field, pKi with Somatostatin receptor type 5 (Homo sapiens), item `N=C(N[C@H](Cc1c[nH]c2ccccc12)c1nc(-c2ccccc2)c[nH]1)c1ccccc1` : 5.63
